Attribution: ChEMBL document CHEMBL4411304

Measured pKd (UniProt Q9BWU1)
Sequence (Q9BWU1 whole entry): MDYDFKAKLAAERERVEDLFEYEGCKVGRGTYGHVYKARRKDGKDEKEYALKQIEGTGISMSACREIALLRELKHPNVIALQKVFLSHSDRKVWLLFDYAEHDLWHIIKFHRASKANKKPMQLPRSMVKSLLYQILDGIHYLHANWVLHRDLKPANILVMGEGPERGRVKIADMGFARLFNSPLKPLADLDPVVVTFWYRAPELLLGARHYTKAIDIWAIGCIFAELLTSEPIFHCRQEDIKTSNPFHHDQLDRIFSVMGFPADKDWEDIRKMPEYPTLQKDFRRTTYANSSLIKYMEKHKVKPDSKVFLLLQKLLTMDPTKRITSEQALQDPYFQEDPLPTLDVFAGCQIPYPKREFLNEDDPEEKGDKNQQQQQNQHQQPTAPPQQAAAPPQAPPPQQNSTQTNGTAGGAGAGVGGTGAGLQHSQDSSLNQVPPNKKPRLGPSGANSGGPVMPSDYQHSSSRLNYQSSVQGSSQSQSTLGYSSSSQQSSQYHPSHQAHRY
Give bare numbers, as −log10 of the molar value.

Input: Give reported pKd value for `N#Cc1ccc2ncnc(NCCc3ccccc3)c2c1`
Output: 6.51

Next item in the queue.
Input: Identify pKd associated with the molecule `CN(C)[C@H]1C[C@@]23CC[C@@]4(O2)C(=CC[C@]2(C)[C@@H](c5ccc6ccncc6c5)CC[C@H]24)C=C3[C@@H](O)[C@@H]1O`
Output: 8.00

====

Biological target: Rho-associated protein kinase 2 (Homo sapiens)
Sequence (O75116 whole entry, the tested form may be a part): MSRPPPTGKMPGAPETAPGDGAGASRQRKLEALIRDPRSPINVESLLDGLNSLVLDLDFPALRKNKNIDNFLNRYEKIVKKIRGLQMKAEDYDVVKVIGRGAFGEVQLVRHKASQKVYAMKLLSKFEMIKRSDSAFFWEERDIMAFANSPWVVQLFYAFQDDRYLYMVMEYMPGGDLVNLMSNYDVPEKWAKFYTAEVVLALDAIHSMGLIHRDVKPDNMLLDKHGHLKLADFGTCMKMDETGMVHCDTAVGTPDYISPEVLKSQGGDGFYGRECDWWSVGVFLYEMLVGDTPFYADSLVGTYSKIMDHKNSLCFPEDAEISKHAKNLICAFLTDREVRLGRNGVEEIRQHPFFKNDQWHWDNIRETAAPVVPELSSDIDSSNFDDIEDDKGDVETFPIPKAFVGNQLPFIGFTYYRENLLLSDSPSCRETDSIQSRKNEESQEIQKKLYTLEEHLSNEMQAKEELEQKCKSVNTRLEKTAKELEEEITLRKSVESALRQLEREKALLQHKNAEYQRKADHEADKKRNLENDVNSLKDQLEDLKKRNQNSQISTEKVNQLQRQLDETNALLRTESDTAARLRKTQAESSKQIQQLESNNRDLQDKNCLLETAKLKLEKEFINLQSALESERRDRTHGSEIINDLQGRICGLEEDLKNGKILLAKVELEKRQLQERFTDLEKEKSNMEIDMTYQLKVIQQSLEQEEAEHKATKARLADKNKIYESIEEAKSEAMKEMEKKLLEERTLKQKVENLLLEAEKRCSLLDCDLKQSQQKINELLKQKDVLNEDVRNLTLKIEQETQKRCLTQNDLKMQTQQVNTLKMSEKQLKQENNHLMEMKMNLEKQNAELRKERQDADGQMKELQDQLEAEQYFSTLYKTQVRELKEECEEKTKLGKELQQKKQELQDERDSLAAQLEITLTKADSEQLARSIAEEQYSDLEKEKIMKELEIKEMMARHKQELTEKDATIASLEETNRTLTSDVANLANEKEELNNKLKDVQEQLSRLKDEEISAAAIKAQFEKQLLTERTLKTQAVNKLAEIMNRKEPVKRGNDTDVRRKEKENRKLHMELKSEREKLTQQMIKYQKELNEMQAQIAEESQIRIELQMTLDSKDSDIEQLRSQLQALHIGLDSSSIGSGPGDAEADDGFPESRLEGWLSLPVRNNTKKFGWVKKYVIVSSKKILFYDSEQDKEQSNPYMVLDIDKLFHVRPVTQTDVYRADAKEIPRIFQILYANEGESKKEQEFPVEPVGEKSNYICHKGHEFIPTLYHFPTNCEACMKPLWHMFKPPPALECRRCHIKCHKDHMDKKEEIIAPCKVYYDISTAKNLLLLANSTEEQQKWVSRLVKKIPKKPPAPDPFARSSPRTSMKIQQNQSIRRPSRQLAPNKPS
Test: Binding affinity to wild-type partial length human ROCK2 (M1 to T431 residues) expressed in mammalian expression system by Kinomescan assay
Observed Property: Kd (µM)
Numbers only, in µM.

Input: For the compound `CN(C)[C@H]1C[C@@]23CC[C@@]4(O2)C(=CC[C@]2(C)[C@@H](c5ccc6ccncc6c5)CC[C@H]24)C=C3[C@@H](O)[C@@H]1O` , give its measured Kd value.
Output: 0.22
